Listed here: items and their measured pIC50.
- system: recombinant human 15-PGDH (Homo sapiens)
- Construct: purchased R&D Systems
- Sequence (P15428 whole entry): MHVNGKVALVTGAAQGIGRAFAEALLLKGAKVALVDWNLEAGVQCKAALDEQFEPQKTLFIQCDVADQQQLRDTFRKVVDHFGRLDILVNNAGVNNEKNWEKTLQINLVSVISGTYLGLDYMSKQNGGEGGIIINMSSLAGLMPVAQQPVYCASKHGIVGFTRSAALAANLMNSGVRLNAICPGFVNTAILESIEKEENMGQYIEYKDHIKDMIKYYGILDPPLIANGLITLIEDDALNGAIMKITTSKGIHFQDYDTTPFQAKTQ
- test: 15-PGDH enzyme inhibition test
- Format: biochemical
- measurement-conditions: 4 nM recombinant human 15-PGDH, 30 μM PGE2, 1 mM NAD+, 60 minutes after starting the reaction; read-out: IC50 Value
pIC50: −log10 of the molar value.

Known results for compounds:
Input line: Could you share which pIC50 value was measured for O=C(c1cnc2c(c1)OCCN2c1ccccc1)N1CCCCC1 ?
Output line: 7.00 to 8.00

Input line: Could you share which pIC50 value was measured for Cn1nc2cc(N3CCCc4cc(C(=O)N5CCC(F)CC5)cnc43)ccn2c1=O ?
Output line: > 8.00

Input line: Could you share which pIC50 value was measured for Cn1nc2cc(N3CCCc4cc(C(=O)N5CCC(F)(F)CC5)cnc43)ccn2c1=O ?
Output line: > 8.00

***
Input line: Could you share which pIC50 value was measured for CN1C(=O)C(C)(C)c2cc(N3CCOc4cc(C(=O)N5CCCCC5)cnc43)ccc21 ?
Output line: < 7.00

Input line: Could you share which pIC50 value was measured for CCn1nc2cc(N3CCCc4cc(C(=O)N5CCC(F)CC5)cnc43)ccn2c1=O ?
Output line: > 8.00

Input line: Could you share which pIC50 value was measured for COc1c(C(=O)N2CCCCC2)ccc2c1OCCN2c1ccn2c(=O)n(C)nc2c1 ?
Output line: > 8.00

Input line: Could you share which pIC50 value was measured for O=C(O)c1ccc(N2CCOc3cc(C(=O)N4CCC(F)(F)CC4)ccc32)cc1 ?
Output line: > 8.00

Input line: Could you share which pIC50 value was measured for Cn1cnc2cc(N3CCOc4cc(C(=O)N5CCCCC5)cnc43)ncc2c1=O ?
Output line: 7.00 to 8.00

* * *

Listed here: items and their measured pIC50.
- system: recombinant human 15-PGDH (Homo sapiens)
- Construct: purchased R&D Systems
- test: 15-PGDH enzyme inhibition test
- Type: biochemical
- measurement-conditions: 4 nM recombinant human 15-PGDH, 30 μM PGE2, 1 mM NAD+, 60 minutes after starting the reaction; read-out: IC50 Value
pIC50: −log10 of the molar value.

Input line: Could you share which pIC50 value was measured for Cn1nc2cc(N3CCOc4cc(C(=O)N5CCCC6(C5)CC(F)(F)C6)cnc43)ccn2c1=O [Example 8-95] ?
Output line: 7.00 to 8.00

***
Input line: Could you share which pIC50 value was measured for O=C(c1cnc2c(c1)OCCN2c1ccc(F)c(F)c1)N1CCCCC1 [Example 1-239] ?
Output line: 7.00 to 8.00

Input line: Could you share which pIC50 value was measured for CCN1Cc2cc(N3CCCc4cc(C(=O)N5CCC[C@@H](F)C5)cnc43)ccc2C1=O [Example 8-83] ?
Output line: > 8.00

Input line: Could you share which pIC50 value was measured for CN(C)C(=O)c1ccc(N2CCCc3cc(C(=O)N4CCCCC4)cnc32)cc1 [Example 6-15] ?
Output line: 7.00 to 8.00

Input line: Could you share which pIC50 value was measured for N#Cc1ccc(N2CCOc3cc(C(=O)N4CCCCC4)ccc32)cc1 [Example 1-157] ?
Output line: > 8.00

Input line: Could you share which pIC50 value was measured for O=C(c1cnc2c(c1)CCCN2c1ccc2c(c1)CN(CC1COC1)C2=O)N1CCCCC1 [Example 1-65] ?
Output line: > 8.00

Input line: Could you share which pIC50 value was measured for CCN1Cc2cc(N3CCCc4cc(C(=O)N5CCC(F)(F)CC5)cnc43)ccc2C1=O [Example 1-126] ?
Output line: > 8.00

Input line: Could you share which pIC50 value was measured for O=C(c1cnc2c(c1)OCCN2c1ccc2c(c1)CN(C1CC1)C2=O)N1CCCCC1 [Example 1-224] ?
Output line: > 8.00

Where do the numbers come from? From patent US12577217B2.
